- MEASURED ON: UniProtKB Q92830
- Sequence (Q92830 whole entry): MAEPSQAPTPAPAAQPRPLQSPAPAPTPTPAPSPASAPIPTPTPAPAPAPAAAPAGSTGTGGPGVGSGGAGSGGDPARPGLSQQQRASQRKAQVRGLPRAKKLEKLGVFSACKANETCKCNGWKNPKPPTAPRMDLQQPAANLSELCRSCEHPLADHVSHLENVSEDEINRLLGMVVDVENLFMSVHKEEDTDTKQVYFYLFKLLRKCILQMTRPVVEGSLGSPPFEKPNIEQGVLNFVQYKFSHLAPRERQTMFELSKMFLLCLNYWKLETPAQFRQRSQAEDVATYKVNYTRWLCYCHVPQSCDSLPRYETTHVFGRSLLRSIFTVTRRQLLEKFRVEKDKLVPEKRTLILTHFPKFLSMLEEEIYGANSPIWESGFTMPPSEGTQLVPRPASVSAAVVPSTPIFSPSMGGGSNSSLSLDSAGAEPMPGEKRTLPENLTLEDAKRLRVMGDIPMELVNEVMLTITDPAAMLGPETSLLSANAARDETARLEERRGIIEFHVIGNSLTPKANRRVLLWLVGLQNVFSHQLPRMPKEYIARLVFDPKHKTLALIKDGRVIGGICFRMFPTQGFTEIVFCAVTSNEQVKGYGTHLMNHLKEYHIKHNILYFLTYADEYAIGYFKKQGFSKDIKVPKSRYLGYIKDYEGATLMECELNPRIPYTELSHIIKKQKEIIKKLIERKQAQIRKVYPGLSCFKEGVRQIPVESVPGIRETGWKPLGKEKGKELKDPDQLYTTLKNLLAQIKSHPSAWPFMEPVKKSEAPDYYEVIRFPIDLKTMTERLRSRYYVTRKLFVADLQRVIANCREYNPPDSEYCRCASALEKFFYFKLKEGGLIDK
- PROCEDURE DETAILS: KAT2A acetyltransferase biochemical assay (RapidFire mass spectrometry, AcCoA to CoA)
- CONDITIONS: read-out: KAT2A Ki at 1 μM AcCoA, 5 μM H3 1-21 peptide, 0.5 nM KAT2A, 90-minute reaction
pKi: −log10 of the molar value.
Label true (1) when pKi is at or above 9; otherwise label false (0).

* CC1(C)CNC[C@](F)(C(=O)N[C@@H]2CC[C@@H](Oc3ccc(C(C)(C)C(=O)O)cc3-c3cccc(F)c3C3CCC3)C2)C1 (single isomer, unassigned) [Example A15] | false (0)
* C[C@H](C(=O)O)c1nn(C)cc1-c1ccc(O[C@@H]2CC[C@@H](NC(=O)[C@]3(F)CNC4(CCC4)C3)C2)c(-c2cccc(F)c2C2CCC2)c1 (single isomer, unassigned) [Example J3] | false (0)
* [2H]C([2H])([2H])N1CC(C)(C)C[C@H]1C(=O)N[C@@H]1CC[C@@H](Oc2ccc(C(C)(C)C(=O)NS(C)(=O)=O)cc2-c2cccc(F)c2C2CCC2)C1 | true (1)
* CN1CC(C)(C)C[C@H]1C(=O)N[C@H]1C[C@H](Oc2ccc(C(=O)O)cc2-c2cccc(F)c2C2CCC2)C[C@H]1O (single isomer, unassigned) | true (1)
* CC1(C)CNCC(F)(C(=O)N[C@@H]2CC[C@@H](Oc3ccc(C(=O)O)cc3-c3cccc(F)c3C3CCC3)C2)C1 (single isomer, unassigned) | true (1)
* CC(C)c1c(F)cccc1-c1cc(C(C)(C)C(=O)NS(C)(=O)=O)ccc1O[C@@H]1CC[C@@H](NC(=O)[C@@]2(F)CNC3(CCC3)C2)C1 (single isomer, unassigned) [Example C19] | true (1)
* CC1(S(=O)(=O)NC(=O)Cc2ccc(O[C@@H]3CC[C@@H](NC(=O)[C@@]4(F)CNC5(CCCC5)C4)C3)c(-c3cccc(F)c3C3CCC3)c2)CC1 (single isomer, unassigned) [Example C69] | true (1)
* C[C@H](C(=O)O)c1ccc(O[C@@H]2CC[C@@H](NC(=O)[C@@]3(F)CNC4(CCC4)C3)C2)c(-c2cccc(F)c2C2CCC2)c1 (single isomer, unassigned) [Example A18] | false (0)
* CC1(C)C[C@H](C(=O)N[C@@H]2CC[C@@H](Oc3cccc(C(=O)O)c3-c3cccc(F)c3C3CCC3)C2)CN1 (atropisomer, axis not shown) [Example H11] | false (0)
* CC1(C)C[C@@](F)(C(=O)N[C@@H]2CC[C@@H](Oc3ccc(C(C)(C)C(=O)O)cc3-c3cccc(F)c3C3CCC3)C2)CN1 (single isomer, unassigned) | false (0)
* C[C@H](C(=O)O)c1ccc(O[C@@H]2CC[C@@H](NC(=O)[C@@]3(F)CNC4(CCC4)C3)C2)c(-c2cccc(F)c2C2CCC2)c1 (single isomer, unassigned) [Example A20] | false (0)
* CCS(=O)(=O)NC(=O)C(C)(C)c1ccc(OC[C@H]2C[C@H](NC(=O)[C@@]3(F)CNC4(CCC4)C3)C2)c(-c2cccc(F)c2C2CCC2)c1 (single isomer, unassigned) | true (1)
